Recorded measurements of growth inhibition, one per entry
- PROTOCOL: NCI Yeast Anticancer Drug Screen. Data for the rad18 strain (AID 177)
- COND: S. cerevisiae rad18 mutant growth inhibition; at 1.2 µM; hits give high values
About 79,000 compounds went through this panel and 15% of them were active in at least one assay; those are over-represented in the sample as a whole.
QUANTITY_KIND: growth inhibition (%)

1) S=c1[nH]c2c(Cl)c(Cl)c(Cl)c(Cl)c2[nH]1 ... 5
2) Cc1cc(N=C2C=CC(=[N+](C)C)C=C2)c(N)cc1N ... -2
3) NC(N)=NCCCS(=O)(=O)Nc1ccc(Nc2c3ccccc3nc3cc([N+](=O)[O-])ccc23)cc1 ... -28
4) CCC(c1ccc(O)cc1)C(CC)c1ccc(OCCN)cc1 (stereo unspecified) ... -7
5) c1ccc2c(c1)Cn1c-2nc2ccccc21 ... -7
6) O=C1C=CC(=O)N1c1ccc(I)cc1 ... 27
7) C/C(=N\NC(=S)NC1CCCC1)c1ccccn1 ... -5
8) CCN(CC)N=Nc1c(C(N)=O)n[nH]c1C ... -2
9) CC(=O)C1(O)Cc2c(O)c3c(c(O)c2C(OC2CC(N)C(O)C(C)O2)C1)C(=O)c1ccccc1C3=O (stereo unspecified) ... 1
10) COc1cc(N)ccc1Nc1c2ccccc2nc2ccccc12 ... -2
11) COCCCN(Cc1cc(OC)c(OC)c(OC)c1)C(=S)Nc1cccc(Cl)c1 ... -17
12) O=c1[nH]c2ccccc2c2nc3ccccc3n12 ... -29
13) OCCN(CCO)c1ccc2c(c1)Cc1ccccc1-2 ... -8
14) CO[C@@]12[C@H](COC(N)=O)C3=C(C(=O)C(C)=C(N)C3=O)N1C[C@@H]1N[C@@H]12 ... 20
15) CC1=CCC(C(C)(C)c2ccc(O)cc2)CC1 (stereo unspecified) ... -6
16) Cc1nc2c(ncn2CCO)c(=O)[nH]1 ... -38
17) COc1ccc(SCc2cc(OC)ccc2OC)cc1 ... -5
18) O=C(Nc1cccc(C(F)(F)F)c1)Oc1ccc(Cl)cc1C(=O)c1ccccc1 ... 6
19) CCOc1ccc(C(=O)CCC(=O)O)c(C)c1 ... -2
20) Oc1ccc(Br)cc1C=NC1CCCCC1 ... 5
21) CC(=O)[C@]1(O)Cc2c(O)c3c(c(O)c2[C@@H](OC2CC(N)C(O)C(C)O2)C1)C(=O)c1c(OCc2ccccc2)cccc1C3=O (stereo partly specified) ... 2
22) CCC(NC(C)c1ccccc1)C(=O)c1ccc(OCc2ccccc2)c(OCc2ccccc2)c1 (stereo unspecified) ... -13
23) CCCCC(=O)c1c(O)nc2sccn2c1=O ... 17
24) Clc1cc(Cc2ccc(N=C/C=C/c3ccccc3)c(Cl)c2)ccc1N=C/C=C\c1ccccc1 ... 1
25) CCOC(=O)Nc1ccc2c(c1)Cc1ccccc1-2 ... -11
26) N#C/C(=C/c1c(Cl)cccc1Cl)C(N)=O ... -19
27) CN(Cc1cnc2nc(N)nc(N)c2n1)c1ccc(C(=O)NC(CCC(=O)O)C(=O)O)c2ccccc12 (stereo unspecified) ... 17
28) NNC(=S)Nc1cccc2ccccc12 ... -32
29) C/C=C/[P+](c1ccccc1)(c1ccccc1)c1ccccc1 ... 58
30) O=c1[nH]cc(/C=N\Nc2ccccc2)c(=O)[nH]1 ... 5
31) O=[N+]([O-])/C(C(Cl)=C(Cl)Cl)=C1/OCCS1 ... 86
32) O=NN(CCCl)C(=O)NC1CCCCC1 ... 29
33) O=Nc1ccc(Nc2ccccc2)cc1 ... -33
34) N#CC(=C1C=CC(=NO)C=C1)c1ccccc1 ... 12
35) CN(C)c1ccc(N=Nc2ccccn2)cc1 ... -16
36) Cc1cc(O)c2c(c1O)C(=O)C13C(=C2O)C(=O)C2C(O)C1C1C(O)C3C(=O)C3=C(O)c4c(O)cc(C)c(O)c4C(=O)C321 (stereo unspecified) ... -3
